Origin of values: patent US20250186614A1

test system: Jurkat cells; experiment: Tacrolimus dose response of FKBP13-AcGFP-mCherry constructs stably transduced into Jurkat cells, GFP MFI by flow cytometry; format: cell-based; settings: absence of tacrolimus
attribute-measured: basal AcGFP expression

molecule	attribute-measured	observed-value
FKBP-195: combinatorial FKBP13 mutant construct of Table 10, carries K135Y (protein, Description of sequence: Construct Name: FKBP-195; Mutation(s): Q72R Q84E A117W V85R DRD K135Y) HCPIKSRKGDVLHMHYTGKLEDGTEFDSSLPRNQPFVFSLGTGERIKGWDQGLLGMCEGEKRKLVIPSELGYGERGWPPKIPGGATLVFEVELLYIER	basal AcGFP expression	lowest basal expression
FKBP-228: combinatorial FKBP13 mutant construct of Table 10 (protein, Description of sequence: Construct Name: FKBP-228; Mutation(s): Q72R Q84E A117W V85R DRD E137R) HCPIKSRKGDVLHMHYTGKLEDGTEFDSSLPRNQPFVFSLGTGERIKGWDQGLLGMCEGEKRKLVIPSELGYGERGWPPKIPGGATLVFEVELLKIRR	basal AcGFP expression	lowest basal expression
FKBP-251: combinatorial FKBP13 mutant construct of Table 10 (protein, Description of sequence: Construct Name: FKBP-251; Mutation(s): Q72R Q84E A117W V85R DRD E130F) HCPIKSRKGDVLHMHYTGKLEDGTEFDSSLPRNQPFVFSLGTGERIKGWDQGLLGMCEGEKRKLVIPSELGYGERGWPPKIPGGATLVFFVELLKIER	basal AcGFP expression	lowest basal expression
